# Test system: SCC-4
# ASSAY_NAME: MTT cell viability assay, SCC-4
# Assay type: cell-based, human
# MEASUREMENT_SETUP: MTT, 48 h
MEASURED_PROPERTY: pIC50
API: returns pIC50 as number; meaning -log10 of concentration in mol/L.

Per the record, N.N.O=C([O-])C1(C(=O)[O-])CCC1.[Pt+2] [Carboplatin, reference compound] has pIC50 of 3.85

====

# Tested on: Primary Gingival Fibroblast
# ASSAY_NAME: MTT cell viability assay, normal cells
# Type: cell-based, human
# MEASUREMENT_SETUP: Homo sapiens, Fibroblast; MTT, 48 h, normal cells
MEASURED_PROPERTY: pIC50
API: returns pIC50 as number; meaning -log10 of concentration in mol/L.

Per the record, CC(C)=CC1=C(OCc2cn(CCOc3cc(=O)oc4ccccc34)nn2)C(=O)c2ccccc2C1=O has pIC50 of 4.51

// moving on: another record for pIC50
Per the record, O=C1C=C(OCc2cn(CCCOc3cc(=O)oc4ccccc34)nn2)C(=O)c2ccccc21 has pIC50 of 4.64

====

# Test system: SCC-9 cell line
# ASSAY_NAME: MTT cell viability assay, SCC-9
# Assay type: cell-based, human
# MEASUREMENT_SETUP: MTT, 48 h
MEASURED_PROPERTY: pIC50
API: returns pIC50 as number; meaning -log10 of concentration in mol/L.

Per the record, N.N.O=C([O-])C1(C(=O)[O-])CCC1.[Pt+2] [Carboplatin, reference compound] has pIC50 of 3.82

====

# System: SCC-25
# ASSAY_NAME: MTT cell viability assay, SCC-25
# Type: cell-based, human
# MEASUREMENT_SETUP: MTT, 48 h
MEASURED_PROPERTY: IC50 (µM)
Write it as a number; the unit µM goes unstated.

Per the record, N.N.O=C([O-])C1(C(=O)[O-])CCC1.[Pt+2] [Carboplatin, reference compound] has IC50 of 249

====

Listed here: items and their measured pIC50.
# System: SCC-9 cell line
# ASSAY_NAME: MTT cell viability assay, SCC-9
# Type: cell-based, human
# MEASUREMENT_SETUP: Homo sapiens, SCC-9; MTT, 48 h
pIC50: −log10 of the molar value.

Per the record, O=C1C=C(NCc2cn(CCOc3cc(=O)oc4ccccc34)nn2)C(=O)c2ccccc21 has pIC50 of < 3.70

Per the record, CC(C)=CCC1=C(OCc2cn(CCOc3cc(=O)oc4ccccc34)nn2)C(=O)c2ccccc2C1=O has pIC50 of < 3.82

Per the record, CC(=O)OCc1cn(CCCOc2cc(=O)oc3ccccc23)nn1 has pIC50 of < 3.70

====

# ASSAY_NAME: Hemolysis assay
# Format: cell-based
# MEASUREMENT_SETUP: isolated human erythrocytes, pH 7.5, read-out: level of hemolysis
MEASURED_PROPERTY: hemolysis at 300 µM

Per the record, O=C1C=C(OCc2cn(CCCOc3cc(=O)oc4ccccc34)nn2)C(=O)c2ccccc21 has hemolysis at 300 µM of ~5%

====

# Test system: SCC-9 cell line
# ASSAY_NAME: MTT cell viability assay, SCC-9
# Type: cell-based, human
# MEASUREMENT_SETUP: Homo sapiens, SCC-9; MTT, 48 h
MEASURED_PROPERTY: IC50

// solved cases for IC50 follow
Param item: O=c1cc(OCCn2cc(-c3ccccc3)nn2)c2ccccc2o1 [Compound 7i] ; param system: SCC-9 cell line; output IC50: > 200 µM

Param item: CCCCCCc1cn(CCOc2cc(=O)oc3ccccc23)nn1 [Compound 7j] ; param system: SCC-9 cell line; output IC50: > 200 µM

Param item: CC(C)=CC1=C(OCc2cn(CCOc3cc(=O)oc4ccccc34)nn2)C(=O)c2ccccc2C1=O [Compound 7c] ; param system: SCC-9 cell line; output IC50: 28.9 µM

Param item: O=C1C=C(NCc2cn(CCCOc3cc(=O)oc4ccccc34)nn2)C(=O)c2ccccc21 [Compound 7e] ; param system: SCC-9 cell line; output IC50: > 150 µM

Next:
Param item: O=c1cc(OCCCn2cc(COc3cc(=O)oc4ccccc34)nn2)c2ccccc2o1 [Compound 7g] ; param system: SCC-9 cell line; output IC50: > 150 µM

Param item: O=C1C=C(OCc2cn(CCCOc3cc(=O)oc4ccccc34)nn2)C(=O)c2ccccc21 [Compound 7f] ; param system: SCC-9 cell line; output IC50: 12.3 µM

Param item: O=C1C=C(OCc2cn(CCOc3cc(=O)oc4ccccc34)nn2)C(=O)c2ccccc21 [Compound 7b] ; param system: SCC-9 cell line; output IC50: > 200 µM

Param item: CCCCCCc1cn(CCCOc2cc(=O)oc3ccccc23)nn1 [Compound 7l] ; param system: SCC-9 cell line; output IC50: > 150 µM
